The reported measurements were obtained from ChEMBL document CHEMBL4346726.

assay_overview: Ratio of drug level in rat liver to plasma at 1 mg/kg, iv or 3 mg/kg, po measured at 2 hr
Type: ADME, organism-based
measured_attribute: Kp at 2 h

Given CC[C@@H]1[C@@H]2CN(C(=O)[C@H](C(C)(C)C)NC(=O)O[C@@H]3C[C@H]3CCCCC(F)(F)c3nc4ccc(OC)cc4nc3O2)[C@@H]1C(=O)N[C@]1(C(=O)NS(=O)(=O)C2(C)CC2)C[C@H]1C(F)F , state its recorded Kp at 2 h.
> 500

----------
assay_overview: Steady state half life in human at 30 to 300 mg administered once daily for 7 days measured under phase 1 clinical trials
Type: ADME
assay_context: in vivo, read-out: t1/2ss
measured_attribute: half-life

What measured half-life goes with CC[C@@H]1[C@@H]2CN(C(=O)[C@H](C(C)(C)C)NC(=O)O[C@@H]3C[C@H]3CCCCC(F)(F)c3nc4ccc(OC)cc4nc3O2)[C@@H]1C(=O)N[C@]1(C(=O)NS(=O)(=O)C2(C)CC2)C[C@H]1C(F)F ?
28 to 41 h

----------
assay_overview: Oral bioavailability in rat at 3 mg/kg
Type: ADME, organism-based
assay_context: in vivo
measured_attribute: bioavailability (%)
Please state the figure in %; there is no need to write the unit.

Please give the measured bioavailability for this molecule: CC[C@@H]1[C@@H]2CN(C(=O)[C@H](C(C)(C)C)NC(=O)O[C@@H]3C[C@H]3CCCCC(F)(F)c3nc4ccc(OC)cc4nc3O2)[C@@H]1C(=O)N[C@]1(C(=O)NS(=O)(=O)C2(C)CC2)C[C@H]1C(F)F
83

----------
Tested on: Hepacivirus hominis
assay_overview: Binding affinity to HCV NS3/4a protease assessed as compound-protein adduct formation per mg protein using radiolabelled compound
measured_attribute: PB

Which value of PB has been reported for CC[C@@H]1[C@@H]2CN(C(=O)[C@H](C(C)(C)C)NC(=O)O[C@@H]3C[C@H]3CCCCC(F)(F)c3nc4ccc(OC)cc4nc3O2)[C@@H]1C(=O)N[C@]1(C(=O)NS(=O)(=O)C2(C)CC2)C[C@H]1C(F)F in the records?
< 1 pmol/mg

Which PB reading was recorded for the molecule C=C[C@@H]1C[C@]1(NC(=O)[C@@H]1C[C@@H]2CN1C(=O)[C@H](C(C)(C)C)NC(=O)O[C@@H]1C[C@H]1CCCCCc1nc3ccc(OC)cc3nc1O2)C(=O)NS(=O)(=O)C1CC1 ?
24 pmol/mg

I am curious: what PB value has been reported for C=C[C@@H]1C[C@]1(NC(=O)[C@@H]1C[C@@H](Oc2cc(-c3csc(NC(=O)C(C)C)n3)nc3c(Br)c(OC)ccc23)CN1C(=O)[C@@H](NC(=O)OC1CCCC1)C(C)(C)C)C(=O)O ?
15 pmol/mg

What value of PB has been recorded for this entry: CC[C@@H]1C[C@]1(NC(=O)[C@@H]1C[C@@H]2CN1C(=O)[C@H](C(C)(C)C)NC(=O)OCC(C)(C)CCCCc1cccc3c1CN(C3)C(=O)O2)C(=O)NS(=O)(=O)C1CC1
29 pmol/mg

Would you mind telling me what PB value was observed for CC(C)(C)OC(=O)N[C@H]1CCCCC/C=C\[C@@H]2C[C@@]2(C(=O)NS(=O)(=O)C2CC2)NC(=O)[C@@H]2C[C@@H](OC(=O)N3Cc4cccc(F)c4C3)CN2C1=O ?
202 pmol/mg
